Each record here notes measured remaining at 60 min, 1 μM.
protocol: Rat liver microsome stability assay
Type: in vitro ADME
conditionDetails: liver microsomes, pH 7.4, 60 min at 37 °C, NADPH-generating system, read-out: compound recovery at 60 min in rat liver microsomes
Protocol: Experiments were performed as previously described.[59]
# output: bare number, implied unit %

input: Tell us which remaining at 60 min, 1 μM value is on record for CC(CCC(=O)NC(CC(=O)O)Cc1cn(S(=O)(=O)c2ccccc2)c2ccccc12)C1CCC2C3CC=C4CC(O)CCC4(C)C3CCC12C (centres unmarked)
output: 62.2

Now look at this one.
input: Supply reported remaining at 60 min, 1 μM belonging to this compound: C[C@H](CCC(=O)N[C@H](CC(=O)O)Cc1c[nH]c2ccccc12)[C@H]1CCC2C3CC=C4C[C@@H](O)CC[C@]4(C)C3CC[C@@]21C (some centres unmarked)
output: 40.3

====

targetUnderTest: EphA2 (Mus musculus, UniProt Q03145)
Sequence (Q03145 with tags, fused parts or gaps limits assumed): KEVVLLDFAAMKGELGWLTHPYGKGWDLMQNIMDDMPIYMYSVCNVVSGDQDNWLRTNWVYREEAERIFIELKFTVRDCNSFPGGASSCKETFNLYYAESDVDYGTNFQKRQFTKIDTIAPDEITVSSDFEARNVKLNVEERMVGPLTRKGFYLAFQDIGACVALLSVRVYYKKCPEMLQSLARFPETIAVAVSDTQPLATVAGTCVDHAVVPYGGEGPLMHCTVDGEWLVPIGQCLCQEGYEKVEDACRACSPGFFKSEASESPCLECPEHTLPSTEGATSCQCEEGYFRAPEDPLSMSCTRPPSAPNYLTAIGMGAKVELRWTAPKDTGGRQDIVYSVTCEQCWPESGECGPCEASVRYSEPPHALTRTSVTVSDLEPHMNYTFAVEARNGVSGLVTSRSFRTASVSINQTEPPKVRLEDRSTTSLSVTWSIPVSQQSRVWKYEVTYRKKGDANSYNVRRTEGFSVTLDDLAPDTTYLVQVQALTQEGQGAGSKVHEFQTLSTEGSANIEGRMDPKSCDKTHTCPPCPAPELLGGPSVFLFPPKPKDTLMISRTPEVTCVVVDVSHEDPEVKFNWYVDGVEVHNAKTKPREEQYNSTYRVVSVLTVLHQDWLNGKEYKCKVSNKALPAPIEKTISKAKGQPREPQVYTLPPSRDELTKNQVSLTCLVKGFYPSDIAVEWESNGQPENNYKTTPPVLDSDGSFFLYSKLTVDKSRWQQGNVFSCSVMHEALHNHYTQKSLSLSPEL
readoutName: Ki (nM)
Field format: number, assumed nM, no unit text.

input: Provide only the value of recorded Ki for CC(CCC(=O)NC(CC(=O)O)Cc1cn(S(=O)(=O)c2ccccc2)c2ccccc12)C1CCC2C3CC=C4CC(O)CCC4(C)C3CCC12C (stereo not shown)
output: 2200
